Would you mind telling me the reported fold improvement over S7AB-H8 of each entry?
target: T1, histidine-tagged human Siglec-7 (NovoProtein) (human, UniProt Q9Y286 19-353); assay: BLI, antibody captured
T1 construct: Bought protein; also called recombinant human Siglec-7; recombinant Siglec-7; not shown: histidine tag
T1 sequence (Q9Y286 19-353 limits assumed): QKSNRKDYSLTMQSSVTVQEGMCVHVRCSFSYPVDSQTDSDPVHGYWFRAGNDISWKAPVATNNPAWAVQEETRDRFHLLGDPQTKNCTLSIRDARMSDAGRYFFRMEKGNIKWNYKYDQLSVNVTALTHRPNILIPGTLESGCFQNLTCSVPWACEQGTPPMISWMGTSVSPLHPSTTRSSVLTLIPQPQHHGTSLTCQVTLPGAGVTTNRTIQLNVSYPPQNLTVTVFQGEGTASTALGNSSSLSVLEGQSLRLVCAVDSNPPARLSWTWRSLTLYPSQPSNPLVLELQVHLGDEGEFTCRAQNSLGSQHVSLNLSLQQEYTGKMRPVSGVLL
Numbers only, in fold.

Example binders with recorded fold improvement over S7AB-H8:
S7AB-H8.6 (antibody, V domains shown) VH: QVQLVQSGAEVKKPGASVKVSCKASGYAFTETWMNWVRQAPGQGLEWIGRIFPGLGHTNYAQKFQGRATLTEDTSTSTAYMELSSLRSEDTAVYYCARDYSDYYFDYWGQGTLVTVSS VL: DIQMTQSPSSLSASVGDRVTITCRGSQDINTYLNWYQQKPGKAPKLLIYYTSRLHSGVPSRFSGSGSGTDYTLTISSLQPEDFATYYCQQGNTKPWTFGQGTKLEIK	0.5
S7AB-H8.8 (antibody, V domains shown) VH: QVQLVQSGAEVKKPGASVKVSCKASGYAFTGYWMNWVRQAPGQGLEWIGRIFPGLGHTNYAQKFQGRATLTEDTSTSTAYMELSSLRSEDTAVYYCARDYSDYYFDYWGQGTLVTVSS VL: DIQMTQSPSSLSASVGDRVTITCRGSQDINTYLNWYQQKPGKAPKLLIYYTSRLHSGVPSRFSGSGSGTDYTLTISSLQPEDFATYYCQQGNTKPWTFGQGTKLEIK	2.8

Proceeding to the next binder to report its fold improvement over S7AB-H8.
Suppose we examine the binder S7AB-H8.27 (antibody, V domains shown) VH: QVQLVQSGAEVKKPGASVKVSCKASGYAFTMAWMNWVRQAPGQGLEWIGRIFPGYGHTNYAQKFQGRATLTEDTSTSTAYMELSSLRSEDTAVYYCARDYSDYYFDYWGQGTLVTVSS VL: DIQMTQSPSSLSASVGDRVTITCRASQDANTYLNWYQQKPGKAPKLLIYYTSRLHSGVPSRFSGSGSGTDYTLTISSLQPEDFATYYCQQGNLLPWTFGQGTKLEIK ; what fold improvement over S7AB-H8 value has been reported?
10.5

Cited source: patent US20210246204A1
